tested on: hPD-L1-eGFP (Homo sapiens, UniProt Q9NZQ7)
Sequence (Q9NZQ7 19-290): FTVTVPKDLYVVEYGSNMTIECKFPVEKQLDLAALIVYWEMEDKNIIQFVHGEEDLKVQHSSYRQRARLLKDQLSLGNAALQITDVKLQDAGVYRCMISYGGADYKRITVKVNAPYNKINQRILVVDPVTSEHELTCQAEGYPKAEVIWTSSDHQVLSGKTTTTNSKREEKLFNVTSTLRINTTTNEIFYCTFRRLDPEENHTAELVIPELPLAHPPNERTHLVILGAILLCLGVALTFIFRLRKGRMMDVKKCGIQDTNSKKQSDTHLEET
protocol notes: Microscale thermophoresis (MST) PD-L1 binding assay
protocol conditions: CHO-K1 cell lysate, hPD-L1-eGFP 35 nM, PBS-T buffer (0.05% Tween 20)
measure: pKd
Notebook: values listed as pKd are -log10 of the concentration (mol/L).

- compound: "COc1ccccc1C1=NN(c2ccccn2)C(=O)C1 [ALIPD60]"
  tested on: "hPD-L1-eGFP (Homo sapiens, UniProt Q9NZQ7)"
  pKd: 7.64
- compound: "O=C1CC(C23CC4CC(CC(C4)C2)C3)=NN1c1cc(Cl)cc(Cl)c1 [ALIPD28]"
  tested on: "hPD-L1-eGFP (Homo sapiens, UniProt Q9NZQ7)"
  pKd: 6.05
- compound: "COc1ccc(C2=NN(c3cc(Cl)cc(Cl)c3)C(=O)C2)cc1 [ALIPX02]"
  tested on: "hPD-L1-eGFP (Homo sapiens, UniProt Q9NZQ7)"
  pKd: 4.74
- compound: "O=C1CC(c2cccc(C(F)(F)F)c2)=NN1c1ccccn1 [ALIPD58]"
  tested on: "hPD-L1-eGFP (Homo sapiens, UniProt Q9NZQ7)"
  pKd: 5.92
- compound: "O=C1CC(c2ccccc2)=NN1c1ccc(Cl)cc1Cl"
  tested on: "hPD-L1-eGFP (Homo sapiens, UniProt Q9NZQ7)"
  pKd: 4.85
- compound: "COc1ccc(C2=NN(c3ccccn3)C(=O)C2)cc1 [ALIPD19]"
  tested on: "hPD-L1-eGFP (Homo sapiens, UniProt Q9NZQ7)"
  pKd: 7.08
- compound: "O=C1CC(c2ccc(Cl)cc2)=NN1c1ccccn1 [ALIPD59]"
  tested on: "hPD-L1-eGFP (Homo sapiens, UniProt Q9NZQ7)"
  pKd: 4.57
- compound: "O=C1CC(c2ccc(Cl)cc2Cl)=NN1c1ccccn1 [ALIPD26]"
  tested on: "hPD-L1-eGFP (Homo sapiens, UniProt Q9NZQ7)"
  pKd: 6.96
- compound: "O=C1CC(C2CCCCCC2)=NN1c1ccc(Cl)cc1Cl"
  tested on: "hPD-L1-eGFP (Homo sapiens, UniProt Q9NZQ7)"
  pKd: 4.10

Reported pKd for COc1ccc(C2=NN(c3ccc(Cl)cc3Cl)C(=O)C2)cc1OC [ALIPD52] : what is it?
6.67
